Test system: human beta-coronavirus OC43
assay: OC43 coronavirus antiviral assay in HeLa cells (cytopathic effect, cell-titer-glo)
Format: cell-based
stated conditions: Betacoronavirus 1, OC43, HeLa, 144 h, 6 days at 33° C., read-out: EC50 (class)
pEC50: −log10 of the molar value.
The following molecules are listed with their measured pEC50 values.
property: pEC50

INSERT INTO results (molecule, endpoint_value) VALUES
  ('CC1(C(NC(=O)C(F)(F)F)C(=O)N2C[C@H]3[C@@H]([C@H]2C(=O)N[C@H](C#N)C[C@@H]2CCNC2=O)[C@H]2C=C[C@@H]3C2)CC1 (some centres unmarked) [Example 24]', '> 7.00'),
  ('N#C[C@H](C[C@@H]1CCNC1=O)NC(=O)[C@@H]1[C@@H]2[C@H](CN1C(=O)[C@@H](NC(=O)C(F)(F)F)C13CC(C1)C3)[C@@H]1C=C[C@H]2C1 [Example 27]', '> 7.00'),
  ('COC1(C(=O)N[C@H](C(=O)N2C[C@H]3[C@@H]([C@H]2C(=O)N[C@H](C#N)C[C@@H]2CCNC2=O)[C@H]2C=C[C@@H]3C2)C(C)(C)C)CCC1 [Compound 127]', '6.00 to 7.00'),
  ('C[C@H]1[C@H]2[C@@H]([C@@H](C(=O)N[C@H](C#N)C[C@@H]3CCNC3=O)N1C(=O)[C@@H](NC(=O)C(F)(F)F)C(C)(C)C)[C@H]1C=C[C@@H]2C1 [Example 93]', '> 7.00'),
  ('CC(C)(C)[C@H](NC(=O)C(F)(F)C(F)(F)F)C(=O)N1C[C@H]2[C@@H]([C@H]1C(=O)N[C@H](C#N)CC1CC3(COC3)NC1=O)[C@H]1C=C[C@@H]2C1 (some centres unmarked) [Compound 107]', '> 7.00'),
  ('CC(C)(C)[C@H](NC(=O)C(F)(F)F)C(=O)N1C[C@H]2[C@@H]([C@H]1C(=O)N[C@H](C#N)CC1Cn3nccc3NC1=O)[C@H]1C=C[C@@H]2C1 (some centres unmarked) [Example 9]', '> 7.00'),
  ('C=C(C)C(C)(C)[C@H](NC(=O)C(F)(F)F)C(=O)N1C[C@H]2[C@@H]([C@H]1C(=O)N[C@H](C#N)C[C@@H]1CCNC1=O)[C@H]1C=C[C@@H]2C1 [Example 97]', '> 7.00'),
  ('CC(C)(C)[C@H](NC(=O)C(F)(F)F)C(=O)N1C[C@@H]2[C@H]3C[C@@H]([C@@H]2[C@H]1C(=O)N[C@H](C#N)C[C@@H]1CCNC1=O)[C@H]1[C@@H]3C1(F)F [Example 23]', '5.00 to 6.00'),
  ('CC(C)(C)[C@H](NC(=O)C(F)(F)Cl)C(=O)N1C[C@H]2[C@@H]([C@H]1C(=O)N[C@H](C#N)C[C@@H]1CCNC1=O)[C@H]1C=C[C@@H]2C1(F)F [Compound 128]', '> 7.00'),
  ('CC(C)(C)[C@H](NC(=O)C(F)(F)C(F)(F)F)C(=O)N1C[C@H]2[C@@H]([C@H]1C(=O)N[C@H](C#N)C[C@@H]1CCNC1=O)[C@H]1C=C[C@@H]2C1(F)F [Compound 129]', '> 7.00'),
  ('CC1(C)NC(=O)[C@H](C[C@@H](C#N)NC(=O)[C@@H]2[C@@H]3[C@H](CN2C(=O)[C@@H](NC(=O)C(F)(F)F)C(C)(C)C)[C@@H]2C=C[C@H]3C2)O1 [Compound 105]', '6.00 to 7.00'),
  ('CC(C)(C)[C@H](NC(=O)C(F)(F)F)C(=O)N1C[C@@H]2[C@@H]3CC[C@@H](C3)[C@@H]2[C@H]1C(=O)N[C@H](C#N)CC1Cc2ccccc2NC1=O (some centres unmarked) [Example 31]', '6.00 to 7.00'),
  ('[2H]C1([2H])C[C@@H](C[C@@H](C#N)NC(=O)[C@@H]2[C@@H]3[C@H](CN2C(=O)[C@@H](NC(=O)C(F)(F)F)C(C)(C)C)[C@@H]2C=C[C@H]3C2)C(=O)N1 [Compound 50]', '> 7.00'),
  ('CC(C)(C)[C@H](NC(=O)C(F)(F)F)C(=O)N1C[C@H]2[C@@H]([C@H]1C(=O)N[C@H](C#N)C[C@@H]1CCNC1=O)[C@H]1C=C[C@@H]2C1=O [Example 89]', '6.00 to 7.00'),
  ('C[C@@H](OCC1CC1)[C@H](NC(=O)C(F)(F)F)C(=O)N1C[C@H]2[C@@H]([C@H]1C(=O)N[C@H](C#N)C[C@@H]1CCNC1=O)[C@H]1C=C[C@@H]2C1 [Example 99]', '> 7.00'),
  ('C#CC(C)(C)[C@H](NC(=O)C(F)(F)F)C(=O)N1C[C@@H]2[C@@H]3CC[C@@H](C3)[C@@H]2[C@H]1C(=O)N[C@H](C#N)C[C@@H]1CCNC1=O [Example 13]', '6.00 to 7.00'),
  ('COC(C)(C)[C@H](NC(=O)C(F)(F)C(F)(F)F)C(=O)N1C[C@H]2[C@@H]([C@H]1C(=O)N[C@H](C#N)C[C@@H]1CCNC1=O)[C@H]1C=C[C@@H]2C1 [Compound 131]', '> 7.00'),
  ('CC(C)(C)[C@H](NC(=O)C1(F)CC1)C(=O)N1C[C@@H]2[C@@H]3CC[C@@H](C3)[C@@H]2[C@H]1C(=O)N[C@H](C#N)C[C@@H]1CCNC1=O [Compound 64]', '> 7.00'),
  ('CC(C)(C)[C@H](NC(=O)C(F)(F)F)C(=O)N1C[C@H]2[C@@H]([C@H]1C(=O)N[C@H](C#N)C[C@@H]1CCNC1=O)[C@H]1CC[C@@H]2O1 (mixture of isomers) [Compound 58]', '5.00 to 6.00'),
  ('CC(C)(C)[C@H](NC(=O)c1ccco1)C(=O)N1C[C@H]2[C@@H]([C@H]1C(=O)N[C@H](C#N)C[C@@H]1CCNC1=O)[C@H]1C=C[C@@H]2C1 [Example 19]', '> 7.00');

Measured values drawn from patent US12252481B2 for this set.
